# target-desc: human JAK2 (a.a. 828-1132) (Homo sapiens, UniProt O60674)
# Construct: JAK2 (a.a. 828-1132); His tag (N); made in house; host or cells: insect cells (baculovirus)
# Sequence (O60674 828-1132): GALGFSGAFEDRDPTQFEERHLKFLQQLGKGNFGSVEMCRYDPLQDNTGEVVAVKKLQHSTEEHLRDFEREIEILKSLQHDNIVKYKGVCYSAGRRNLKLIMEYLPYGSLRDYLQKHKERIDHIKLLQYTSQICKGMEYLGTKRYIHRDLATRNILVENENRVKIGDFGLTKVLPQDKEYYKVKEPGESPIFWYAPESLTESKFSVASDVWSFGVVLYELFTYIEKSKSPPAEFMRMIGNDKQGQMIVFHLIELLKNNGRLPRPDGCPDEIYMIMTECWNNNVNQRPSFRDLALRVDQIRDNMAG
# assay-notes: In vitro JAK kinase assay (HTRF, phosphorylation of a biotinylated peptide), JAK2
# Format: biochemical
# run-parameters: Table D1
Structures can show the parent of a compound that is named as a salt.
Response field label: string, one of True (IC50 strictly below 0.2 µM) or False.

Study these solved cases before continuing.
Challenge: Please check: IC50 for O=C(Nc1ccccc1)c1cc2cc(c1)OCCSc1cccc(c1)Nc1nc(ncc1Cl)N2 [Example D50, trifluoroacetate] , strictly under 0.2 µM or not?
Response given: True

Challenge: Then Clc1cnc2nc1Nc1cccc(c1)SSc1cccc(c1)N2 [Example D12, trifluoroacetate] ?
Response given: False

Challenge: Can you check O=C(COc1ccc2cc1CCc1cncc(c1)Nc1ncc(Cl)c(n1)N2)N1CCN(c2ccc(F)cc2)CC1 [Example D242, tris(trifluoroacetate)] next?
Response given: True

Challenge: Another compound: O=C(CC1CCN(c2ccccn2)C1)Nc1ccc2cc1CCc1cncc(c1)Nc1ncc(Cl)c(n1)N2 (stereo not drawn) [Example D156, tris(trifluoroacetate)]
Response given: True

Challenge: Next entry: Cc1cc(C(=O)N2CCC[C@H](CC(=O)Nc3ccc4cc3CCc3cncc(c3)Nc3ncc(Cl)c(n3)N4)C2)no1 [Example D209, bis(trifluoroacetate)]
Response given: False

***
Challenge: Does this compound meet the criterion IC50 < 0.2 µM? Clc1cnc2nc1Nc1cccc(c1)OCCc1cc(cc(-c3ccncc3)c1)N2 [Example D25, bis(trifluoroacetate)]
Response given: True
